# PROCEDURE_DETAILS: protein stability index of a GFP-peptide fusion (yeast GPS) (PSI 1-4); higher = more stable; sorted into four equal gates, so the index is relative within each strain
# ASSAY_CONTEXT: pdr5∆

BIOSEQUENCE	protein stability index
DQFQWILRKPGKDCKLQ [RRI2]	3.25
LSISVPSDVNIDVMKSQ [SNU114]	2.84
VKLLKTTVPIVSKKRQK [POP3]	2.95
GSAATSGFEFSKEDTLR [RPN1]	3.14
ILNLYSSAHLIRINDEP [YML103C/NUP188]	2.18
PLLESFITFSLDDWISI [IRR1]	2.46
ISQVSSIHAIGSIKEDY [RPB7]	2.65
YYGLVIDLLLLGQERAT [PRP8]	1.26
KETAPVIDTLAAGYGKI [RPL28]	2.71
DSIASVLSPDSNIMSDS [GAL11]	2.98
FIGRLPIMLRSKNCYLS [RPB2]	1.58
DLKFKRHKNKHIQGFPT [DSN1]	3.38
DNMITGVTKGYKYKMRY [RPL9A]	3.3
RENMICKIDFQKNFMDQ [RRI2]	2.96
RAKALGIKVTNPKGRLA [RPL32]	3.33
TKRVEKPQLKFKSPIDN [RRP6]	3.03
LGYTHIAINFTVNHSEK [RPP1]	1.25
AASALDEKEKQLAVANE [SIR4]	3.28
VKMLRDNPGYKASKEIK [SIR3]	3.38
IDRNSTILYLNVFHGLC [IRR1]	1.52
DQSISKLQSWDKVSSCF [NNF1]	1.59
EQKNTAKEELNGLKDQL [YIL149C/MLP2]	3.32
PAFSFGISNGSESKDSD [YLR335W/NUP2]	3.05
DIQLKNLFPLKPKMLPI [SRP68]	2.66
AHRNGIKKPKTYKYPSL [RPL29]	2.96
TYNMIDAAAEKRNGDEV [ARP7]	3.03
KNATDLQQAKLRESEIS [SMC3]	3.15
LDKLDEILYYQIKTLPE [AAR2]	2.97
LNELETLIKKKQDEKKS [SMC2]	3.27
ESSINTHPHAADGSSYM [SKI6]	3.22
TEALLLEHDVEYRPFSK [DIS3]	3.08
TANATAELNLPTVDEQR [SNF11]	3.14
SYYDNDLDETTQTFNGS [YML031W/NDC1]	2.78
IRFRIEREVFVDVKPKS [RPC25]	2.66
VYLTAVLEYLAAEILEL [HTA1]	2.43
KLLDSGCENPADVFRRC [SRP72]	1.72
PPAYALLGSCQTDGMGL [RPC25]	2.57
DSYGQGSMTKTWYVGNS [SSN2]	3.09
PKNIEPPLTSQYSTRHD [SWI3]	3.02
SIISSKTSCVVEKRIGK [RGR1]	2.62
KTDTKVSFRTHNSHLSL [SRP21]	3.06
HKQIHTTIFVKSTTPYV [POP7]	2.31
ATNRVDVLDPALLRSGR [RPT5]	2.84
GDNTSDVDMEDRNLTEF [RRI1]	3.08
QFTGFLLHEMTQTYMQM [GRR1]	2.08
IVACELILSGDTTANNG [YJL039C/NUP192]	2.46
SDSEDSDAKEQHQSLSR [ESC2]	3.19
SVDKKVDSGEERNEQER [SWI3]	3.35
KYIALQVIVDIFSVHGN [YCG1]	1.36
ELMAMNITPRLYTDRSR [RPB2]	1.68

The origin of these recorded values is the supplement of paper PMC9732359.
